Values compiled from patent US20220380473A1.

TARGET_SYSTEM: Galectin-3 (Homo sapiens, UniProt P17931)
Sequence (P17931 whole entry): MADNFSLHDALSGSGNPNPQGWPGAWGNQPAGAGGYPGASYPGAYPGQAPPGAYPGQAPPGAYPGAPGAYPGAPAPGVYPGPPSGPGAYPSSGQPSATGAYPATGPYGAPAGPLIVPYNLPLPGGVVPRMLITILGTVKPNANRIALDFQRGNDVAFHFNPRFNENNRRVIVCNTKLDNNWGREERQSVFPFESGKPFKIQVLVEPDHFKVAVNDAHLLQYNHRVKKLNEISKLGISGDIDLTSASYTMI
EXPERIMENTAL_PROTOCOL: SPR (BiacoreT200) binding affinity
SETTINGS: 25° C., read-out: hGal-3 KD
MEASUREMENT_TYPE: pKd
One number for each entry, as −log10 of the molar value.

# example entries with known answers
{"MOLECULE": "846.2H3: murine anti-Gal3 antibody (antibody, V domains shown) VH: QIQLVQSGPELKKPGETVKISCKASGYTFTNYGMNWVKQAPGKGLKWMGWINTYTGEPSYADDFKGRFAFSLETSASTAYLQINNLKNEDMATYFCARWGGYDGDYYAMDYWGQGTSVTVSS VL: NIMMTQSPSSLAVSAGEKVTMSCKSSQSVLYSSNQKNYLAWYQQKPGQSPKLLIYWASTRESGVPDRFTGSGSGTDFTLTISSVQPEDLAVYYCHQYLSSLTFGAGTKLELK", "OBSERVED_MEASUREMENT": 7.99}
{"MOLECULE": "20D11.2C6: murine anti-Gal3 antibody (antibody, V domains shown) VH: EVQLQQSGPELVKPGASVKISCKASGYTFTDFYINWVKQSHGKSLEWIGDINPKNGGINYNPKFKIKATLTVDKSSSTSYMDLRGLTSEDSAVYYCTSGYGFPYWGQGTLVTVSA VL: DIQMNQSPSSLSASLGDTITITCRASQNIYIWLSWYQQKPGNIPKLLIYKASNLHTGVPSRFSGSGSGTDFTLTISTLQPEDIATYFCLQGQSYPLTFGAGTKLEMK", "OBSERVED_MEASUREMENT": 7.56}

Report pKd for each item below.
1. 4A11.2B5: murine anti-Gal3 antibody, origin of IMT006-1 and IMT006-5 (antibody, V domains shown) VH: QVQLQQSGPELVKPGASVKISCKASGYSFTNYYIHWVKQRPGQGLEWIGWIYPGSGNTNYNEKFKGKATLTADTSSSTTNMQLSSLTSEDSAVYYCSTAPGGFDVWGSGTTVTVSS VL: DIVMTQAAFSNPVTLGTSASISCRSSKSLLHSDGITYLYWYLQRPGQSPQLLIYRMSNLASGVPDRFSGSGSGTDFTLRISRVEAEDVGVYYCAQMLEFPLTFGAGTKLELK
2. 13A12.2E5: murine anti-Gal3 antibody (antibody, V domains shown) VH: QIQLVQSGPELKKPGETVKISCKTSGYKFKTYVMSWVKQAPGKALKWMGWINTYSGVPTYADDFKGRFAFSLETSASTAYLEIINLKNEDTATYFCARDGNYGDPMDYWGQGTSVTVSS VL: DVVMTQTPLTLSVAIGQPASISCKSSQSLLYTNGKTYLNWLLQRPGQSPKRLIYLLSKLDSGVPDRFSASGSGTDFTLKISRVEAEDLGVYYCLQSTHFPLTFGAGTKLEMK

[8.28, 8.09]
